Where do these numbers come from? They come from patent US10780090B2.

- assayed-system: recombinant human SAE enzyme (Homo sapiens (Human))
- Sequence (Q9UBT2 whole entry): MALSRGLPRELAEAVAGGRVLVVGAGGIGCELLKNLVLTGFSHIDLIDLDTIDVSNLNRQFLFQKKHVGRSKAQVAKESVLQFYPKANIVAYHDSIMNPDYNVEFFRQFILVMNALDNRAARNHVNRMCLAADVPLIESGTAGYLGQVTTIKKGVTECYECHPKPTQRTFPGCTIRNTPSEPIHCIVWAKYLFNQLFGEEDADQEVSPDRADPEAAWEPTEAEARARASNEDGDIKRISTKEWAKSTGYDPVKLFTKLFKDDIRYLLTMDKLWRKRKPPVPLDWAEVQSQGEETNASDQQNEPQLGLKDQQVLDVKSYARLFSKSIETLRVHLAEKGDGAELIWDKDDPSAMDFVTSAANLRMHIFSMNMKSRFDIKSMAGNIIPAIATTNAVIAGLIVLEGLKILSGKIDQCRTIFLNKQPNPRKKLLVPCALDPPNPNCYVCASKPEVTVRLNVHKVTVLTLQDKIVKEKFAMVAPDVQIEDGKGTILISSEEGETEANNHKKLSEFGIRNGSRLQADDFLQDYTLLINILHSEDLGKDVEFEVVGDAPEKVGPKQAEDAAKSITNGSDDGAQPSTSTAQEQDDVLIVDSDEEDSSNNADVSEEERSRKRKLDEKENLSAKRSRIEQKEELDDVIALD
- Sequence (Q9UBE0 whole entry partner): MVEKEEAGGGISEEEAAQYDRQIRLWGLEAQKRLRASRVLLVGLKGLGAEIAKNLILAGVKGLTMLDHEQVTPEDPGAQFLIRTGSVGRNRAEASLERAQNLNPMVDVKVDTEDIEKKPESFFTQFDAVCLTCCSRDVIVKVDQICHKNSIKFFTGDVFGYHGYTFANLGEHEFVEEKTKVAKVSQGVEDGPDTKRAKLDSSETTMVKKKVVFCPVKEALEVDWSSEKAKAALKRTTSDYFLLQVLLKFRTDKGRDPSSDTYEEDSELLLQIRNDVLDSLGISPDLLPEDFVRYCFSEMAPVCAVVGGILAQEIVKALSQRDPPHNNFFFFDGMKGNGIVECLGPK
- run-description: SAE HTRF enzyme assay
- Format: biochemical
- test-conditions: SAE inhibition at compound concentration 0.111 μM
Consider the following compounds; for each one, report its Percent Inhibition.
One number for each entry, in %.

Observe how each entry below is paired with its result.
compound	assayed-system	Percent Inhibition (%)
NS(=O)(=O)OC[C@H]1C[C@@H](Nc2ncncc2C(=O)c2cc([C@@H]3OCC4(CC4)c4ccccc43)cs2)C[C@@H]1O (single isomer, unassigned) [I-281a]	recombinant human SAE enzyme (Homo sapiens (Human))	74
NS(=O)(=O)OC[C@H]1C[C@@H](Nc2ncncc2C(=O)c2cc([C@@H]3OCCc4c(Cl)cccc43)cs2)C[C@@H]1O (single isomer, unassigned) [I-301a]	recombinant human SAE enzyme (Homo sapiens (Human))	40
Cc1ccc2c(n1)[C@H](c1cc(C(=O)c3cncnc3N[C@@H]3C[C@H](COS(N)(=O)=O)[C@@H](O)C3)sc1C)OCC2 (mixture of isomers)	recombinant human SAE enzyme (Homo sapiens (Human))	99
COc1ccc2c(n1)[C@H](c1cc(C(=O)c3cncnc3N[C@@H]3C[C@H](COS(N)(=O)=O)[C@@H](O)C3)sc1C)OCC2 (single isomer, unassigned) [I-339a]	recombinant human SAE enzyme (Homo sapiens (Human))	99
Cc1sc(C(=O)c2cncnc2N[C@@H]2C[C@H](COS(N)(=O)=O)[C@@H](O)C2)cc1[C@@H]1OCCc2ccc(Cl)nc21 (single isomer, unassigned) [I-286a]	recombinant human SAE enzyme (Homo sapiens (Human))	39
N#Cc1sc(C(=O)c2cncnc2N[C@@H]2C[C@H](COS(N)(=O)=O)[C@@H](O)C2)cc1[C@@H]1OCCc2ccccc21 (mixture of isomers)	recombinant human SAE enzyme (Homo sapiens (Human))	91

Now let's try a different one.
get_value(item= CN1CCc2ccc(Cl)cc2[C@@H]1c1csc(C(=O)c2cncnc2N[C@@H]2C[C@H](COS(N)(=O)=O)[C@@H](O)C2)c1 (single isomer, unassigned) [I-307b] , readout=Percent Inhibition) returns 97

---

- assayed-system: recombinant human SAE enzyme (Homo sapiens (Human))
- run-description: SAE HTRF enzyme assay
- Type: biochemical
- test-conditions: Concentration 0.111 μM; read-out: Percent Inhibition
Give inhibition at 0.111 µM for every item shown.
Quick note: number first, unit second.

Example results:
> print(dat)
                                test.smiles  experimental.result
1  NS(=O)(=O)OC[C@H]1C[C@@H](Nc2ncncc2C(=O)c2cc(Cn3ccc4ccncc43)cs2)C[C@@H]1O                  83%
2  CC(C)(O)c1ccc(C(=O)c2cncnc2N[C@@H]2C[C@H](COS(N)(=O)=O)[C@@H](O)C2)s1                  22%
3  NS(=O)(=O)OC[C@H]1C[C@@H](Nc2ncncc2C(=O)c2cc(CN3CCc4ccc(Cl)cc43)cs2)C[C@@H]1O                  98%

Give me inhibition at 0.111 µM for each of these compounds, listed below.
1. CC(C)(O)c1csc(C(=O)c2cncnc2N[C@@H]2C[C@H](COS(N)(=O)=O)[C@@H](O)C2)c1
2. Cc1oc(C(=O)c2cncnc2N[C@@H]2C[C@H](COS(N)(=O)=O)[C@@H](O)C2)cc1Cc1cccc(Cl)c1
3. Cc1sc(C(=O)c2cncnc2N[C@@H]2C[C@H](COS(N)(=O)=O)[C@@H](O)C2)cc1Cn1ccc(C#N)c1

// result
1. 19%
2. 100%
3. 66%

Go through the items and report each one's inhibition at 0.111 µM.
1. NS(=O)(=O)OC[C@H]1C[C@@H](Nc2ncncc2C(=O)c2cc(Sc3cccc(Cl)c3)c(Cl)s2)C[C@@H]1O
2. Cc1cn(Cc2csc(C(=O)c3cncnc3N[C@@H]3C[C@H](COS(N)(=O)=O)[C@@H](O)C3)c2)c2ccccc12
3. NS(=O)(=O)OC[C@H]1C[C@@H](Nc2ncncc2C(=O)c2cc(Cn3cnc(Br)c3)cs2)C[C@@H]1O

// result
1: 90%; 2: 96%; 3: 19%

So, "Cc1sc(C(=O)c2cncnc2N[C@@H]2C[C@H](COS(N)(=O)=O)[C@@H](O)C2)cc1Cc1cccc(Cl)c1" ? Its inhibition at 0.111 µM was 100%

---

- assayed-system: recombinant human SAE enzyme (Homo sapiens (Human))
- run-description: SAE HTRF enzyme assay
- Type: biochemical
- test-conditions: class symbols A/B/C
pIC50: −log10 of the molar value.
quantity-name: pIC50

molecule	assayed-system	quantity-name	experimental-result
NS(=O)(=O)OC[C@H]1C[C@@H](Nc2ncncc2C(=O)c2cc([C@@H]3NCCc4ccc(Br)cc43)c(Cl)s2)[C@H](O)[C@@H]1O (single isomer, unassigned) [I-259a]	recombinant human SAE enzyme (Homo sapiens (Human))	pIC50	> 8.00
CN(C)Cc1cn(Cc2csc(C(=O)c3cncnc3N[C@@H]3C[C@H](COS(N)(=O)=O)[C@@H](O)C3)c2)c2ccccc12 [I-221]	recombinant human SAE enzyme (Homo sapiens (Human))	pIC50	6.00 to 7.00
C[C@](O)(c1ccccc1)c1coc(C(=O)c2cncnc2N[C@@H]2C[C@H](COS(N)(=O)=O)[C@@H](O)C2)c1 (single isomer, unassigned) [I-58a]	recombinant human SAE enzyme (Homo sapiens (Human))	pIC50	7.00 to 8.00
Cc1cc(Cc2cccc(Cl)c2)sc1C(=O)c1cncnc1N[C@@H]1C[C@H](COS(N)(=O)=O)[C@@H](O)C1 [I-233]	recombinant human SAE enzyme (Homo sapiens (Human))	pIC50	6.00 to 7.00

State recorded pIC50 for all listed molecules.
1. N[C@H](c1cccc(Cl)c1)c1csc(C(=O)c2cncnc2N[C@@H]2C[C@H](COS(N)(=O)=O)[C@@H](O)C2)c1 (single isomer, unassigned) [I-36b]
2. NS(=O)(=O)OC[C@H]1C[C@@H](Nc2ncncc2C(=O)c2cc(COc3ccccc3I)cs2)C[C@@H]1O [I-161]
3. NS(=O)(=O)OC[C@H]1C[C@@H](Nc2ncncc2C(=O)c2cc([C@H](O)C3CCCCC3)c(Cl)s2)C[C@@H]1O (mixture of isomers) [I-172]

// result
1. > 8.00
2. > 8.00
3. 7.00 to 8.00

// for each molecule below, give its pIC50
1. N[C@H](c1cccc(Cl)c1)c1cc(C(=O)c2cncnc2N[C@@H]2C[C@H](COS(N)(=O)=O)[C@@H](O)C2)sc1Cl (single isomer, unassigned) [I-15a]
2. NS(=O)(=O)OC[C@H]1C[C@@H](Nc2ncncc2C(=O)c2cc(C(=O)c3ccccc3)c(Cl)s2)C[C@@H]1O [I-215]

// result
["7.00 to 8.00", "6.00 to 7.00"]

---

- assayed-system: recombinant human SAE enzyme (Homo sapiens (Human))
- run-description: SAE HTRF enzyme assay
- Format: biochemical
- test-conditions: class symbols A/B/C
quantity-name: IC50

Give IC50 for each listed item.
1. Cc1sc(C(=O)c2cncnc2N[C@@H]2C[C@H](COS(N)(=O)=O)[C@@H](O)C2)cc1[C@@H]1OCCc2ccccc21 [I-256b]
2. NS(=O)(=O)OC[C@H]1C[C@@H](Nc2ncncc2C(=O)c2cc([C@@]3(c4ccccc4)CCCO3)cs2)C[C@@H]1O (single isomer, unassigned) [I-32a]
3. NS(=O)(=O)OC[C@H]1C[C@@H](Nc2ncncc2C(=O)c2cc(CC3=CCCCC3)cs2)C[C@@H]1O [I-140]

// result
1: < 10 nM; 2: < 10 nM; 3: < 10 nM

Quick one: give me IC50 for each item below, same order please.
1. COCc1ccc(C(=O)c2cncnc2N[C@@H]2C[C@H](COS(N)(=O)=O)[C@@H](O)C2)o1 [I-212]
2. NS(=O)(=O)OC[C@H]1C[C@@H](Nc2ncncc2C(=O)c2cc(CO)c(Cc3cccc(Cl)c3)s2)C[C@@H]1O [I-142]
3. Cc1sc(C(=O)c2cncnc2N[C@@H]2C[C@H](COS(N)(=O)=O)[C@@H](O)C2)cc1[C@@H]1OCCc2sccc21 (mixture of isomers) [I-275]
4. Cc1sc(C(=O)c2cncnc2N[C@@H]2C[C@H](COS(N)(=O)=O)[C@@H](O)C2)cc1[C@@H]1NCCc2ccc(Cl)cc21 [I-263a]
5. NS(=O)(=O)OC[C@H]1C[C@@H](Nc2ncncc2C(=O)c2cc(CN3CCn4ccnc4C3)cs2)C[C@@H]1O [I-190]

// result
1. 100 to 1000 nM
2. < 10 nM
3. < 10 nM
4. < 10 nM
5. 10 to 100 nM

State the recorded IC50 for every item in the following list.
1. C#Cc1cccc(Cc2csc(C(=O)c3cncnc3N[C@@H]3C[C@H](COS(N)(=O)=O)[C@@H](O)C3)c2)c1 [I-70]
2. NS(=O)(=O)OCC1CC(Nc2ncncc2C(=O)c2cc(C3OCCc4ccc(Cl)nc43)c(Cl)s2)CC1O (mixture of isomers) [I-276]

// result
["< 10 nM", "< 10 nM"]
